assay: Particle size and polydispersity index (PDI) of nanolipid particles, dynamic light scattering; assay type: physicochemical; details: LNP formulation prepared from the named cationic lipid, 25° C
observed property: Particle size (nm)

In [3]: df
Out[3]:
                                   compound  observed
0  CCCCCCCCCCCOC(=O)CCCCCN(CCO)CCCCCCCC(=O)OC(CCCCCCCC)CCCCCCCC [SM-102, reference compound]       145
1  CCCCCCCCCCCOC(=O)CCCCCN(CCCCCCCC(=O)OC(CCCCCCCC)CCCCCCCC)CCN(C)CCOC [YK-215]       219
2  CCCCCCCCCCOC(=O)CCCN(CCCCCC(=O)OCC(CCCCCCCC)CCCCCCCC)CCN(C)CCNC [YK-221]       237
3  CCCCCCCCCCOC(=O)CCCN(CCCCCC(=O)OCC(CCCCCCCC)CCCCCCCC)CCN(CC)CCO [YK-208]       167
4  CCCCCCCCCCCOC(=O)CCCCCN(CCCCCCCC(=O)OC(CCCCCCCC)CCCCCCCC)CCN(CC)CCO [YK-204]       193
5  CCCCCCC(CCCCCC)CCOC(=O)CCCCCN(CCCCCC(=O)OCCC(CCCCCC)CCCCCC)CCN(CCO)CCO [YK-214]       203
6  CCCCCCCCCCOC(=O)CCCN(CCCCCC(=O)OCCC(CCCCCC)CCCCCC)C(=O)SCCCN(C)C [YK-220]       221

----------
assay: Encapsulation rate, drug loading concentration and total RNA concentration detection (RiboGreen); type: physicochemical; conditions: difference of rates
observed property: encapsulation rate higher than that of compound 23 (%)

>>> print(df.to_string())
                                   compound  observed
0  CCCCCCCCCCCOC(=O)CCCCCN(CCCCCCCC(=O)OC(CCCCCCCC)CCCCCCCC)CCN(C)CCO [YK-201]     34.30
1  CCCCCCCCC(CCCCCCCC)COC(=O)CCCCCN(CCCCCC(=O)OCC(CCCCCCCC)CCCCCCCC)CCN(C)CCO [YK-209]        41
2  CCCCCCCCCCCOC(=O)CCCCCN(CCCCCCCC(=O)OC(CCCCCCC)CCCCCCC)CCN(C)CCO [YK-206]     36.20
3  CCCCCCCCCCCOC(=O)CCCCCN(CCCCCCCC(=O)OCC(CCCCCCCC)CCCCCCCC)CCN(C)CCO [YK-202]     31.10
4  CCCCCCCCCCOC(=O)CCCN(CCCCCC(=O)OCC(CCCCCCCC)CCCCCCCC)CCN(C)CCO [YK-207]     35.60

----------
system: 293T cells; test: Cell survival rate assay (CCK-8); type: cell-based; conditions: LNP containing 1.5 μg Fluc-mRNA, 24 hours, CCK-8
Binning scheme for Cell survival rate: Low (below 40%), Mid (40% to below 70%), High (70% or more)

>>> print(df.to_string())
                                    compound  group_label
 0  CCCCCCCCCCOC(=O)CCCN(CCCCCC(=O)OCC(CCCCCCCC)CCCCCCCC)CCN(CC)CCO          Mid
 1  CCCCCCCCC(CCCCCCCC)OC(=O)CCCCCN(CCCCCC(=O)OC(CCCCCCCC)CCCCCCCC)CCN(C)CCO          Low
 2  CCCCCCCCC(CCCCCC)C(=O)OCCCCCCN(CCCCO)CCCCCCOC(=O)C(CCCCCC)CCCCCCCC (stereo not drawn) [ALC-0315, reference compound]          Mid
 3  CCCCCCCCCCOC(=O)CCCN(CCCCCC(=O)OCC(CCCCCCCC)CCCCCCCC)CCN(C)CCOC          Mid
 4  CCCCCCCCCCCOC(=O)CCCCCN(CCCCCCCC(=O)OC(CCCCCCC)CCCCCCC)CCN(C)CCO         High
 5  CCCCCCCCCCCOC(=O)CCCCCN(CCCCCCCC(=O)OC(CCCCCCCC)CCCCCCCC)CCN(C)CCOC          Mid
 6  CCCCCCCCCCOC(=O)CCCN(CCCCCC(=O)OCC(CCCCCCCC)CCCCCCCC)CCN(C)CCO         High
 7  CCCCCCCCC(CCCCCCCC)COC(=O)CCCCCN(CCCCCC(=O)OCC(CCCCCCCC)CCCCCCCC)CCN(C)CCNC          Low
 8  CCCCCCCCCCCOC(=O)CCCCCN(CCCCC(=O)OCC(CCCCCCCC)CCCCCCCC)CCNCC          Low
 9  CCCCCCCCCCCCC(O)CN(C)CCCCCC(=O)OCC(CCCCCC)CCCCCCCC (stereo not drawn) [HHMA, reference compound]          Mid
10  CCCCCCCCC(CCCCCCCC)OC(=O)CCCCCN(CCCCCC(=O)OC(CCCCCCCC)CCCCCCCC)CCN(CCO)CCO          Mid
11  CCCCCCCCCCOC(=O)CCCN(CCCCCC(=O)OCCC(CCCCCC)CCCCCC)C(=O)SCCCN(C)C          Mid
